# Test system: BaF3
# ASSAY_OVERVIEW: Antiproliferative activity against Lck transformed mouse BaF3 cells after 48 hrs by luciferase assay
# Format: functional, cell-based
# TEST_PARAMETERS: BaF3, 48 h
pIC50: −log10 of the molar value.
Quick rule: pIC50 of at least 8 means True, below that means False.

{"columns": ["QUERY_SMILES", "LABEL_CLASS"],
 "data": [
  ["Cc1ccc(NC(=O)c2cccc(C(F)(F)F)c2)cc1NC(=O)c1ccc2nc(Nc3cnccn3)sc2c1", "True"],
  ["Cc1ccc(NC(=O)c2cccc(C(F)(F)F)c2)cc1NC(=O)c1ccc2nc(NC(=O)OC(C)C)sc2c1", "False"],
  ["Cc1ccc(NC(=O)c2cccc(C(F)(F)F)c2)cc1NC(=O)c1ccc2nc(NCCN3CCN(C)CC3)sc2c1", "False"],
  ["CCNC(=O)Nc1nc2ccc(C(=O)Nc3cc(NC(=O)c4ccc(Cl)c(C(F)(F)F)c4)ccc3C)cc2s1", "False"],
  ["Cc1cc(Nc2nc3ccc(C(=O)Nc4cc(NC(=O)c5cccc(C(F)(F)F)c5)ccc4C)cc3s2)nc(C)n1", "True"],
  ["Cc1ccc(NC(=O)c2cccc(C(F)(F)F)c2)cc1NC(=O)c1ccc2nc(N)sc2c1", "False"],
  ["CCNC(=O)Nc1nc2ccc(C(=O)Nc3cc(NC(=O)c4cccc(OC)c4)ccc3C)cc2s1", "False"]
]}

The reported numbers originate from ChEMBL document CHEMBL1143924.
